target: hMITF-sl (Homo sapiens, UniProt O75030-10 1-309)
Sequence (O75030 other isoform, or with tags, fused parts or gaps): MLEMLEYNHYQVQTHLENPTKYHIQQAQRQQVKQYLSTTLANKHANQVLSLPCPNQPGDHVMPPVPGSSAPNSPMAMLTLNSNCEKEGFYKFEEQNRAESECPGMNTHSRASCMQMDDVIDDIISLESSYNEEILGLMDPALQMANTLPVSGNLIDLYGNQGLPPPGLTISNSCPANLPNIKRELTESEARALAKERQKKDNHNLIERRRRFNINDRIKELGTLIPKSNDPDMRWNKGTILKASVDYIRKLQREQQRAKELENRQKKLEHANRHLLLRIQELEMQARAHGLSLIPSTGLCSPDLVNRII
measurement notes: single-molecule fluorescence anisotropy; 300 mM KCl; Single-molecule: 0.5 nM DNA, 10 mM Tris pH 7.4, 0.1 mM EDTA, 165 or 300 mM KCl, 1 mM MgCl2, 143 mM 2-ME, 0.01% Tween-20, 0.1 mg/mL BSA. EMSA: 10 mM Hepes pH 7.9, 50 mM NaCl, 5 mM MgCl2, 0.1 mM EDTA, 2 mM DTT, 5% ethylene glycol, 5% glycerol, BSA, 30 min on ice
conditions: protein: recombinant; tags: none (His6-SUMO removed by ULP-1); unlabeled; chain copies: 2; label: Cy3B (5' positive strand); CF660R (5' negative strand); blunt
quantity measured: Kd (nM)
Numbers only here, please. The scale is nM.

Return value of Kd for input M-box smFRET probe (dsDNA, 5' C6-amino linker on both strands) DNA 1: GAGATCATGTGTTGA DNA 2: TCAACACATGATCTC , no commentary.
0.9
